experimental-system: LG2 (DR1: DRA1*0101 DRB1*0101) cells (Homo sapiens, UniProt P01903+P01911, A100R/D57E/F55L/F60I/F76Y/I96L/L162R/M171V/P40L/Q125E/R42F/V115G/Y59C)
Construct: MHC II Proteins Expressed on PRIESS and LG2 Cells; endogenous in cells; host or cells: LG2 cells
assay-name: Competitive binding to MHC II proteins expressed on LG2 cells
Type: cell-based
experimental-setup: Cell binding IC50 (uM) LG2 (0101), LG2 (0101)
Square brackets hold non-standard residues; d marks the D form. Peptide text beside a SMILES is read from it. * marks the point of attachment. ξ: configuration not given here. Gly(1-amidinopiperidin-4-yl) = N=C(N)N1CCC([C@H](N)C(=O)O)CC1; Pro(3R-Ph) = O=C(O)[C@H]1NCC[C@@H]1c1ccccc1; Tic = O=C(O)[C@@H]1Cc2ccccc2CN1; Cha = N[C@@H](CC1CCCCC1)C(=O)O; ξDisc = O=C(O)C1NCc2ccccc21; Nle = CCCC[C@H](N)C(=O)O; X3 = OCCOCCN*

compound	IC50 / µM
CSCC[C@H](NC(=O)C1c2ccccc2CN1C(=O)[C@@H](NC(=O)[C@H](CC1CCCCC1)NC(C)=O)C1CCN(C(=N)N)CC1)C(N)=O (stereo partly drawn) [Compound P66-1, Ac-Cha-Gpg-Disc-Met-NH2] (Ac-[Cha][Gly(1-amidinopiperidin-4-yl)][ξDisc]M-NH2)	6
CSCC[C@H](NC(=O)[C@@H]1Cc2ccccc2CN1C(=O)[C@@H](NC(=O)[C@H](CC1CCCCC1)NC(C)=O)C1CCN(C(=N)N)CC1)C(=O)N1CC[C@H](c2ccccc2)[C@H]1C(N)=O [Compound P80, Ac-Cha-Gpg-Tic-Met-βPhProNH2] (Ac-[Cha][Gly(1-amidinopiperidin-4-yl)][Tic]M[Pro(3R-Ph)]-NH2)	2.7
CCCC[C@H](NC(=O)[C@@H]1Cc2ccccc2CN1C(=O)[C@@H](NC(=O)[C@H](CC1CCCCC1)NC(C)=O)C1CCN(C(=N)N)CC1)C(=O)NCCOCCO [Compound P70, Ac-Cha-Gpg-Tic-Nle-N(H)CH2CH2OCH2CH2OH] (Ac-[Cha][Gly(1-amidinopiperidin-4-yl)][Tic][Nle]-X3)	5.7
